pKi: −log10 of the molar value.
The compounds below have reported pKi for rat mGluR1 (Rattus norvegicus).
PARAMETER: pKi

INSERT INTO results (smiles_structure, tested_target, result) VALUES
  ('N#Cc1cc(F)cc(S(=O)(=O)c2cnc3cc(F)ccc3c2-c2ccc(F)c(F)c2)c1', 'rat mGluR1 (Rattus norvegicus)', '< 6.30'),
  ('N#Cc1cc(F)cc(S(=O)(=O)c2cnc3cc(F)ccc3c2-c2cccc(F)c2)c1', 'rat mGluR1 (Rattus norvegicus)', '< 6.30'),
  ('N#Cc1cccc(S(=O)(=O)c2cnc3c(F)c(Cl)ccc3c2-c2cccc(Cl)c2)c1', 'rat mGluR1 (Rattus norvegicus)', '6.30 to 6.70');

----------
The compounds below have reported pKi for rat mGluR5 (Rattus norvegicus, UniProt P31424).
pKi: −log10 of the molar value.
PARAMETER: pKi

INSERT INTO results (smiles_structure, parameter, result) VALUES
  ('N#Cc1ccc2ncc(S(=O)(=O)c3cc(Cl)cc(Cl)c3)c(-c3ccccc3F)c2c1', 'pKi', '< 6.30'),
  ('O=S(=O)(c1ccc(F)c(F)c1)c1cnc2cc(F)ccc2c1-c1cccc(F)c1', 'pKi', '> 6.70'),
  ('N#Cc1cccc(S(=O)(=O)c2cnc3ccc(F)cc3c2-c2cccc(F)c2)c1', 'pKi', '> 6.70'),
  ('N#Cc1cc(S(=O)(=O)c2cnc3cc(Cl)ccc3c2-c2cccc(Cl)c2)ccc1F', 'pKi', '> 6.70'),
  ('COc1ccc(S(=O)(=O)c2cnc3cc(F)ccc3c2-c2cccc(Cl)c2)cc1OC', 'pKi', '< 6.30'),
  ('N#Cc1cc(F)cc(S(=O)(=O)c2cnc3cc(F)ccc3c2-c2ccc(F)cc2)c1', 'pKi', '> 6.70');
